Sourced from paper PMC5540273

# Tested on: RSK1(Kin.Dom.2-C-terminal)
# Construct: gene RPS6KA1
# condition_details: concentration: 1 μM, replicates: in singlicate; n = 1;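 also: KINOMEscan kinase panel screen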
assay_metric: %Inh (%)
Give your result in % as a bare value.

Look over these answered cases.
| compound | target_under_test | %Inh (%) |
| --- | --- | --- |
| Cc1cccc(-c2nc(-c3ccc(S(C)(=O)=O)cc3)sc2-c2ccnc(NCCc3ccccc3)c2)c1 | RSK1(Kin.Dom.2-C-terminal) | 8 |
| Cc1cccc(-c2nc(Nc3cccc(C(N)=O)c3)c3ccccc3n2)n1 [GW876019] | RSK1(Kin.Dom.2-C-terminal) | 46 |
| Cl.NC(=O)c1cccc(Nc2nccc(Nc3ccc(Oc4cccc(Cl)c4)c(Cl)c3)n2)c1 [GW659008] | RSK1(Kin.Dom.2-C-terminal) | 0 |

Then there is this compound:
CC1=C(C(=O)Nc2cc3cn[nH]c3cc2F)C(c2ccc(C(F)(F)F)cc2)CC(=O)N1 (stereo not shown) [GSK429286] has a reported %Inh of 18

###

# Tested on: MAK
# condition_details: concentration: 1 μM, replicates: in singlicate; n = 1
assay_metric: %Inh (%)
Report only the number, with the unit % understood.

Examples from the recorded data:
| compound | %Inh, % |
| --- | --- |
| Cc1ccc(NC(=O)Nc2cccc(Cl)c2)cc1-c1ccc(C(=O)Nc2ccncc2)cc1 [GSK1398468] | 19 |
| Clc1cc(Cl)cc(Nc2ccnc(Nc3cc(Cl)cc(Cl)c3)n2)c1 [GSK175726] | 25 |
| COc1cccc(-c2cc(-c3c[nH]nc3-c3ccccn3)ccn2)c1 [GW680338] | 100 |

Just so you know, measured %Inh for CC(C)(C)c1ccc(C(=O)Nc2cn3cc(-c4cccnc4)ccc3n2)cc1 came out at 46

response.value for O=C(O)COc1ncnc2cc(-c3ccc4[nH]ncc4c3)sc12 (field: %Inh) = 2

// O=C(Nc1n[nH]c2cc(-c3cccc(F)c3F)ccc12)C1CC1 [SB-733894] : %Inh value = 21

Notebook: Cc1cccc(-c2nc(Nc3ccc4[nH]ncc4c3)c3ccccc3n2)n1 [GW857175] , %Inh read as 0

// field: %Inh; key: Cc1c(O)cccc1Nc1ccnc2ccc(C(F)(F)F)cc12.Cl [GW466413] ; value = 0

Entry COc1cc(Nc2nccc(N3CCC(NC(=O)Nc4cc(C)ccc4C)C3)n2)cc(OC)c1OC (stereo not shown) [GSK1379762] — recorded %Inh = 54

// sample CC1=C(C(=O)Nc2cc3cn[nH]c3cc2F)C(c2ccc(C(F)(F)F)cc2)CC(=O)N1 (stereo not shown) [GSK429286] , its %Inh was 0

Quick note, %Inh for Cn1ccc2ncnc(Oc3cccc(C(=O)Nc4ccccc4)c3)c21 landed at 8

So for COc1cc2nccc(Nc3ccc(NC(=O)c4ccc(C)cc4)c(O)c3)c2cc1OC.Cl [GW440132] , the logged %Inh turned out to be 13

The reported %Inh of the compound COc1ccccc1-c1ccc2c(NC(=O)C3CC3)n[nH]c2n1 [SB-711239] was 23

# %Inh of Cl.Oc1ccc(-c2nc(-c3ccccc3)[nH]c2-c2ccncc2)cc1 [SB-428218] = 18

###

Catalogue of compounds with associated %Inh
# Test system: LKB1
# Construct: gene STK11
# condition_details: concentration: 1 μM, replicates: in singlicate; n = 1
I only need the number, in %, no unit after it.

| compound | assay_metric | reported_measurement |
| --- | --- | --- |
| CCn1c(-c2cccnc2O)nc2cnccc21 | %Inh | 27 |
| O=C1NC(=O)C(N2CCc3ccccc32)=C1c1ccccc1Cl | %Inh | 2 |
| Cl.O=C(Nc1cccc(-c2nn3ncccc3c2-c2ccnc(Nc3cccnc3)n2)c1)c1c(F)cccc1F | %Inh | 0 |
| COc1cccc(NC(=O)NC2CCN(c3ccnc(Nc4ccc(F)cc4)n3)C2)c1 (stereo not drawn) | %Inh | 25 |
| O=C(Nc1ccc2c(c1)OCO2)NC1CCN(c2ccnc(Nc3ccc(F)cc3)n2)C1 (stereo not drawn) | %Inh | 0 |
| O=S(=O)(c1ccc(-c2ccnc3[nH]ccc23)cc1)N1CCCC1 | %Inh | 5 |
| CSc1nn2c(=O)cc(N3CCOCC3)nc2n1Cc1cccc(C(F)(F)F)c1C | %Inh | 0 |
| Cc1csc(-c2nc(Nc3ccncc3)c3ccccc3n2)n1 | %Inh | 43 |

Turning now to a further record.
Entry COc1cc2ncn(-c3cc(OCC4CCCO4)c(C(N)=O)s3)c2cc1OC (stereo not drawn) ; %Inh = 0

###

The entries below are paired with their reported %Inh.
# Test system: BTK
# condition_details: concentration: 1 μM, replicates: in singlicate; n = 1
Numeric answer only, unit % assumed.

# count of solved cases: 6
| compound | target_under_test | output_unit | %Inh |
| --- | --- | --- | --- |
| Cc1cc(N2Cc3ccccc3C2)nc(Nc2ccc(S(=O)(=O)N3CCOCC3)cc2)n1.Cl | BTK | % | 0 |
| O=C(O)COc1ncnc2cc(-c3ccc4[nH]ncc4c3)sc12 | BTK | % | 0 |
| Fc1cccc(COc2nnc(-c3ccc4c(c3)CCO4)o2)c1 | BTK | % | 17 |
| COC(=O)c1c(-c2ccccc2)c2cc(C(=O)O)ccc2c(=O)n1Cc1ccccc1 | BTK | % | 0 |
| Cc1csc(-c2nc(Nc3ccncc3)c3ccccc3n2)n1 | BTK | % | 0 |
| CCn1c(-c2cccnc2O)nc2cnccc21 | BTK | % | 0 |

// recorded %Inh for COc1ccccc1CNC(=O)c1cc(C(=O)c2ccccc2C)c[nH]1 : 0

Reported %Inh for Cc1ccc(C(=O)Nc2ccc(Nc3ccnc4cc(-c5ccccn5)ccc34)cc2O)cc1.Cl was 46

%Inh in this record for Cc1ccc(-c2cc(-c3c[nH]nc3-c3ccccn3)ccn2)cc1 : 51

Given item Cc1cccc(-c2nc(-c3ccc(S(C)(=O)=O)cc3)sc2-c2ccnc(NCCc3ccccc3)c2)c1 , the value recorded as its %Inh is 0

Per the record, Cc1cccc(-c2cc(Nc3ccncc3)c3ccccc3n2)n1 has %Inh of 0

Just so you know, measured %Inh for CSc1nn2c(=O)cc(N3CCOCC3)nc2n1Cc1cccc(C(F)(F)F)c1C came out at 0

Item: COc1cccc(NC(=O)NC2CCN(c3ccnc(Nc4ccc(F)cc4)n3)C2)c1 (stereo not drawn) | %Inh: 0

# compound CCCc1ccc(S(=O)(=O)NC2CCN(c3ccnc(Nc4ccc(F)cc4)n3)C2)cc1 (stereo not drawn) ; its %Inh = 0

// recorded %Inh for Cl.O=C(Nc1cccc(-c2nn3ncccc3c2-c2ccnc(Nc3cccnc3)n2)c1)c1c(F)cccc1F : 0

###

# Test system: PIM1
# condition_details: concentration: 1 μM, replicates: in singlicate; n = 1
Recorded %Inh by entry
Answer in %, number only, no unit symbol.

| input_smiles | target_under_test | %Inh [%] |
| --- | --- | --- |
| Cn1ccc2ncnc(Oc3ccc(NC(=O)Nc4ccccc4)cc3)c21 | PIM1 | 8 |
| Cl.Oc1ccc(-c2nc(-c3ccccc3)[nH]c2-c2ccncc2)cc1 | PIM1 | 44 |

According to the records, this compound Cn1ccc2ncnc(Oc3ccc(Nc4nc5ccccc5[nH]4)cc3)c21 displays %Inh of 0

###

# Test system: PIP5K2B
# condition_details: concentration: 1 μM, replicates: in singlicate; n = 1
assay_metric: %Inh (%)
Write the answer as a number in %, unit excluded.

Study these solved cases before continuing.
| molecule | output_unit | %Inh |
| --- | --- | --- |
| Cc1ccc(C(=O)Nc2ccc(Nc3ccnc4cc(-c5ccccn5)ccc34)cc2O)cc1.Cl | % | 11 |
| Cc1cccc(-c2nc(Nc3ccc4[nH]ncc4c3)c3ccccc3n2)n1 | % | 42 |
| Cn1cncc1-c1ccc2ncnc(Nc3ccc(OCc4ccccc4)cc3)c2c1 | % | 17 |
| Cc1cc(N2Cc3ccccc3C2)nc(Nc2ccc(S(=O)(=O)N3CCOCC3)cc2)n1.Cl | % | 10 |
| Cc1cccc(-c2nc(Nc3ccncc3)c3ccccc3n2)n1 | % | 0 |

Given item Cc1ccc(NC(=O)Nc2cc(C(C)(C)C)nn2-c2ccccc2)cc1 , the value recorded as its %Inh is 12

%Inh reading for COc1ccc(C2=C(Nc3cccc(C(=O)O)c3)C(=O)NC2=O)cc1 : 16

Query O=c1cc(N2CCOCC2)nc2n(Cc3cccc(Cl)c3Cl)ccn12 yields %Inh of 2

###

# Test system: DAPK2
# condition_details: concentration: 1 μM, replicates: in singlicate; n = 1
This listing pairs compounds with measured %Inh.
Give the quantity in %, number only.

Illustrative cases are given below, each with its answer.
| compound | target_under_test | output_unit | %Inh |
| --- | --- | --- | --- |
| COC(=O)c1c(-c2ccccc2)c2cc(C(=O)O)ccc2c(=O)n1Cc1ccccc1 | DAPK2 | % | 0 |
| NC(=O)c1nnc2ccccc2c1N | DAPK2 | % | 10 |
| CS(=O)(=O)c1ccc(-c2c(-c3ncn[nH]3)sc(N3CCOCC3)c2C#N)cc1 | DAPK2 | % | 0 |
| Fc1cc(Cl)ccc1Nc1ccnc2cc(I)ccc12 | DAPK2 | % | 0 |
| COc1cccc(NC(=O)NC2CCN(c3ccnc(Nc4ccc(F)cc4)n3)C2)c1 (centres unmarked) | DAPK2 | % | 0 |

Sample C[C@@H]1CCCCN1c1cc(-c2ccc3c(N)n[nH]c3c2)nc(N)n1 ; %Inh observed: 0

Cc1c(Cn2ccn3c(=O)cc(N4CCOCC4)nc23)cccc1C(F)(F)F yielded %Inh of 12

Noted for Cc1nnc(-c2ccc3occ(-c4ccc(S(C)=O)cc4)c3c2)[nH]1 (centres unmarked) : its %Inh reads 5

Lab book: %Inh of COc1ccc(Nc2nccc(-c3cccc(NC(=O)c4cc5cc(F)ccc5[nH]4)c3)n2)cc1 noted as 11

# compound Clc1cc(Cl)cc(Nc2ccnc(Nc3cc(Cl)cc(Cl)c3)n2)c1 ; its %Inh = 19
